Target: T1, EsCas13d, nuclease-dead (Eubacterium siraeum, UniProt B0MS50, R295A;H300A;R849A;H854A)
T1 sequence: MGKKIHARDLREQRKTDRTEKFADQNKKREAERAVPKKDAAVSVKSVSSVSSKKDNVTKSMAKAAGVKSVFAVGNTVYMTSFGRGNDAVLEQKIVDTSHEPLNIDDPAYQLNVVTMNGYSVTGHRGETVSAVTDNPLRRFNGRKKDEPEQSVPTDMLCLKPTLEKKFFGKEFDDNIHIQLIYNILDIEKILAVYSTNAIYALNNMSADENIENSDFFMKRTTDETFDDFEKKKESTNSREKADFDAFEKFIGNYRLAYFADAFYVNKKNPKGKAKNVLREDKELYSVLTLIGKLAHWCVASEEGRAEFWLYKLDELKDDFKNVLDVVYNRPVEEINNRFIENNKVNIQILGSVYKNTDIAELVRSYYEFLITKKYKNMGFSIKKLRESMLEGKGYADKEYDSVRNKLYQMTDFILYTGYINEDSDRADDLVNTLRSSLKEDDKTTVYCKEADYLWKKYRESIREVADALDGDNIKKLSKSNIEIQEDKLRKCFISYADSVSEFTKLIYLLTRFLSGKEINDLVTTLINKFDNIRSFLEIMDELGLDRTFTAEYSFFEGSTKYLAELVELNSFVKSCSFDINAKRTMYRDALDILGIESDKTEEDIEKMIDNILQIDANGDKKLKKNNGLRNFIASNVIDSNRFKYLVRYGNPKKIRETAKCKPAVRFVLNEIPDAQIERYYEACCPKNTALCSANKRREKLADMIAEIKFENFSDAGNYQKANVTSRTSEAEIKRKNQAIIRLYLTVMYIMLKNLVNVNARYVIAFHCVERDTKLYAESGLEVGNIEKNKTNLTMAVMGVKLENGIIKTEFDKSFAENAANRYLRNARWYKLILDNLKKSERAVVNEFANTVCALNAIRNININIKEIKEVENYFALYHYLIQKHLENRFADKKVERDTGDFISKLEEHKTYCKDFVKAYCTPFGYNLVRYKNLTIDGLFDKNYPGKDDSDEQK
Assay: crRNA (strand 1, pre-loaded); Mg2+; 40 mM Tris-HCl pH 7.5, 150 mM NaCl, 6 mM MgCl2, 1 mM DTT, 0.1% Tween-20, 0.2 mg/ml BSA; 25 C; 10 min per concentration, then washed
Details: tags: His6-TwinStrep-SUMO cleaved; N-terminal SNAP kept (SNAP-Surface 488); label: 3' end held by stalled T7 RNA polymerase
Listed here are binders together with their documented pKd.
Please express pKd as -log10 of the molar concentration.

Answered examples (2):
| binder | readout.name | assay.result |
| --- | --- | --- |
| target 1 MT 5'PFS GGG 3'PFS CGG (mixed) RNA 1: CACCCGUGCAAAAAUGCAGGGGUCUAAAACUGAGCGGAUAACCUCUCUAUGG RNA 2: GGGAAUGGAUCCACAUCUACGAAUUCGGGCCAUAGAGAGGUUAUCCGCUCACGGAGAUCGGAAGAGCACACGU | pKd | 7.43 |
| target 1 insA 3' of 22,insC 3' of 1 (mixed) RNA 1: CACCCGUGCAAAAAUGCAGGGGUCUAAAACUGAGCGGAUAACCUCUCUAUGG RNA 2: GGGAAUGGAUCCACAUCUACGAAUUCGUACACAUAGAGAGGUUAUCCGCUCACCCGAGAUCGGAAGAGCACACGU | pKd | 7.89 |

Please turn your attention to the following entry.
Reported pKd of target 1 insA 3' of 17,insG 3' of 14 (mixed) RNA 1: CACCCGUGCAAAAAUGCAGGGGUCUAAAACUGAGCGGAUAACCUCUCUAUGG RNA 2: GGGAAUGGAUCCACAUCUACGAAUUCGUACCAUAGAAGAGGGUUAUCCGCUCACCGAGAUCGGAAGAGCACACGU : 7.81

Every entry's value here was drawn from paper PMC10786891.
